These data points were gathered from the supplement of paper PMC12808144.

Reported cell viability values are given for each entry in this list.
# Test system: Mel-DCC-11-R
# assay overview: cell viability relative to DMSO control (fraction of DMSO control); higher = less cytotoxic, active = 0.8 or less
# condition info: 1 µM; 120 h; vemurafenib co-treatment 8 µM

[
  {
    "compound": "O.O=P1(N(CCCl)CCCl)NCCCO1 (stereo not given) [Cyclophosphamide monohydrate]",
    "cell viability": 1.03
  },
  {
    "compound": "CCC1(c2ccc(N)cc2)CCC(=O)NC1=O (stereo not given) [Aminoglutethimide]",
    "cell viability": 1.04
  },
  {
    "compound": "C=C1C[C@@H]2[C@H](CC[C@]3(C)C(=O)CC[C@@H]23)[C@@]2(C)C=CC(=O)C=C12",
    "cell viability": 1.13
  },
  {
    "compound": "CCCCCN(C)CCC(O)(P(=O)([O-])O)P(=O)(O)O.[Na+] [Ibandronate sodium]",
    "cell viability": 0.935
  },
  {
    "compound": "CNC(=O)Oc1ccccc1OC(C)C",
    "cell viability": 0.985
  },
  {
    "compound": "COC(=O)Nc1nc2ccccc2[nH]1",
    "cell viability": 1.05
  },
  {
    "compound": "O=P1(NCCCl)OCCCN1CCCl (stereo not given) [Ifosfamide]",
    "cell viability": 1
  },
  {
    "compound": "O=C(O)CCCc1ccc(N(CCCl)CCCl)cc1",
    "cell viability": 1.11
  },
  {
    "compound": "Cl.Cn1c(CCCC(=O)O)nc2cc(N(CCCl)CCCl)ccc21 [Bendamustine hydrochloride]",
    "cell viability": 1.04
  },
  {
    "compound": "CCC1=C[C@H]2CN3CCc4c([nH]c5ccccc45)[C@](C(=O)OC)(C2)[C@H]13",
    "cell viability": 0.983
  }
]

----------
Reported cell viability values are given for each entry in this list.
# Tested on: NHEM-hTERT
# assay overview: cell viability relative to DMSO control (fraction of DMSO control); higher = less cytotoxic, active = 0.5 or less
# condition info: 1 µM; 120 h

[
  {
    "compound": "O=C(O)CCCc1ccc(N(CCCl)CCCl)cc1 [Chloroambucil]",
    "cell viability": "1.06 (inactive)"
  },
  {
    "compound": "CNC(=O)Oc1ccccc1OC(C)C [Propoxur]",
    "cell viability": "0.998 (inactive)"
  },
  {
    "compound": "Cn1cc(C2=C(c3cn(C4CCN(Cc5ccccn5)CC4)c4ccccc34)C(=O)NC2=O)c2ccccc21 [Enzastaurin]",
    "cell viability": "0.973 (inactive)"
  },
  {
    "compound": "Cc1ncc(CNC(=O)N(CCCl)N=O)c(N)n1.Cl [Nimustine Hydrochloride]",
    "cell viability": "1.08 (inactive)"
  },
  {
    "compound": "O=P1(NCCCl)OCCCN1CCCl (stereo not given) [Ifosfamide]",
    "cell viability": "1.05 (inactive)"
  }
]

----------
# Test system: Mel-DCC-11
# assay overview: cell viability relative to DMSO control (fraction of DMSO control); higher = less cytotoxic, active = 0.5 or less
# condition info: 1 µM; 120 h
The label is 1.0 for cell viability below 1 and 0.0 for cell viability equal to or exceeding 1.

[
  {
    "compound": "CC(O)(CS(=O)(=O)c1ccc(F)cc1)C(=O)Nc1ccc(C#N)c(C(F)(F)F)c1 (stereo unspecified) [Bicalutamide]",
    "class name": 1.0
  },
  {
    "compound": "CCC1(c2ccc(N)cc2)CCC(=O)NC1=O (stereo unspecified) [Aminoglutethimide]",
    "class name": 0.0
  },
  {
    "compound": "C[C@]12CC[C@@H]3c4ccc(OC(=O)N(CCCl)CCCl)cc4CC[C@H]3[C@@H]1CC[C@@H]2OP(=O)([O-])[O-].[Na+].[Na+] [Estramustine phosphate sodium]",
    "class name": 0.0
  },
  {
    "compound": "C[C@]12CCC(=O)C(O)=C1CC[C@@H]1[C@@H]2CC[C@]2(C)C(=O)CC[C@@H]12 [Formestane]",
    "class name": 0.0
  },
  {
    "compound": "O=[As]O[As]=O (stereo unspecified) [Arsenic oxide (3)]",
    "class name": 1.0
  },
  {
    "compound": "COC(=O)Nc1nc2ccccc2[nH]1 [Carbendazim]",
    "class name": 0.0
  },
  {
    "compound": "NCCC(O)(P(=O)([O-])O)P(=O)([O-])O.[Na+].[Na+] [Pamidronate disodium salt]",
    "class name": 0.0
  },
  {
    "compound": "CCC1=C[C@H]2CN3CCc4c([nH]c5ccccc45)[C@](C(=O)OC)(C2)[C@H]13 [Catharanthine]",
    "class name": 1.0
  },
  {
    "compound": "C[C@]12CC[C@H]3[C@@H](CC[C@@]45O[C@@H]4C(O)=C(C#N)C[C@]35C)[C@@H]1CC[C@@H]2O [Trilostane]",
    "class name": 0.0
  },
  {
    "compound": "COc1cc([C@@H]2c3cc4c(cc3[C@H](O)[C@H]3COC(=O)[C@H]23)OCO4)cc(OC)c1OC [Podophyllotoxin]",
    "class name": 1.0
  }
]

----------
# Test system: NHEM-hTERT
# assay overview: cell viability relative to DMSO control (fraction of DMSO control); higher = less cytotoxic, active = 0.5 or less
# condition info: 1 µM; 120 h
endpoint: cell viability

[
  {
    "compound": "CC(O)(CS(=O)(=O)c1ccc(F)cc1)C(=O)Nc1ccc(C#N)c(C(F)(F)F)c1 (stereo not drawn) [Bicalutamide]",
    "system under test": "NHEM-hTERT",
    "endpoint": "cell viability",
    "value observed": "1.01 (inactive)"
  },
  {
    "compound": "C[C@]12CC[C@@H]3c4ccc(OC(=O)N(CCCl)CCCl)cc4CC[C@H]3[C@@H]1CC[C@@H]2OP(=O)([O-])[O-].[Na+].[Na+] [Estramustine phosphate sodium]",
    "system under test": "NHEM-hTERT",
    "endpoint": "cell viability",
    "value observed": "0.984 (inactive)"
  },
  {
    "compound": "CCCCCN(C)CCC(O)(P(=O)([O-])O)P(=O)(O)O.[Na+] [Ibandronate sodium]",
    "system under test": "NHEM-hTERT",
    "endpoint": "cell viability",
    "value observed": "1.02 (inactive)"
  }
]

----------
# Tested on: Mel-DCC-11-R
# assay overview: cell viability relative to DMSO control (fraction of DMSO control); higher = less cytotoxic, active = 0.8 or less
# condition info: 1 µM; 120 h; vemurafenib co-treatment 0 µM
The label is true (1) for cell viability below 1 and false (0) for cell viability equal to or exceeding 1.

[
  {
    "compound": "CCC1=C[C@H]2CN3CCc4c([nH]c5ccccc45)[C@](C(=O)OC)(C2)[C@H]13",
    "class name": "true (1)"
  },
  {
    "compound": "Cn1cc(C2=C(c3cn(C4CCN(Cc5ccccn5)CC4)c4ccccc34)C(=O)NC2=O)c2ccccc21",
    "class name": "false (0)"
  },
  {
    "compound": "Cc1ncc(CNC(=O)N(CCCl)N=O)c(N)n1.Cl [Nimustine Hydrochloride]",
    "class name": "false (0)"
  },
  {
    "compound": "O=P1(NCCCl)OCCCN1CCCl (configuration not stated) [Ifosfamide]",
    "class name": "true (1)"
  },
  {
    "compound": "COc1cc([C@@H]2c3cc4c(cc3[C@H](O)[C@H]3COC(=O)[C@H]23)OCO4)cc(OC)c1OC",
    "class name": "true (1)"
  }
]
